Assay target: T1, Monomeric hAng-2FD (human, UniProt O15123 282-496)
T1 construct: also called fibrinogen-like domain of human Ang2; Human Ang-2FD
T1 sequence: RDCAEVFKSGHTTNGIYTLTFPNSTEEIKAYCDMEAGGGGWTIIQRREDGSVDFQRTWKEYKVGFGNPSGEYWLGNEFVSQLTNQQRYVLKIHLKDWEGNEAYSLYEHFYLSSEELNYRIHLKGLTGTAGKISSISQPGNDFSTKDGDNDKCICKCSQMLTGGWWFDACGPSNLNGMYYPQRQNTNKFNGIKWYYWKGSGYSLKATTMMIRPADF
Experimental details: SPR, captured Ab
Kindly apply the following: 1 if T1/2 is less than 2 min, -1 in every other case.

H1M724N (antibody, V domains shown) VH: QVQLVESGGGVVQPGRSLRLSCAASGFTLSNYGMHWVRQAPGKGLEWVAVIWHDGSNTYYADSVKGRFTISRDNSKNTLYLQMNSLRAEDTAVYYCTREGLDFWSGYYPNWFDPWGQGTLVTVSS VL: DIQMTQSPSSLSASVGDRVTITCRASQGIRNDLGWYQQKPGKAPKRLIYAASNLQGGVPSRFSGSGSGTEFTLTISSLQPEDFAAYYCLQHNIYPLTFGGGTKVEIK :: -1
H1H742N (antibody, V domains shown) VH: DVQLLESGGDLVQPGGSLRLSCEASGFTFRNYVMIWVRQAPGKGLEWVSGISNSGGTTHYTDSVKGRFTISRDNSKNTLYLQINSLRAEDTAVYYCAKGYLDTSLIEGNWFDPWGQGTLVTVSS VL: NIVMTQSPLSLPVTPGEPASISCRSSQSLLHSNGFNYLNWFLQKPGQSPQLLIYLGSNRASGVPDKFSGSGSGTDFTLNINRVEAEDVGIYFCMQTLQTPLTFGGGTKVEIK :: -1
H1H743N (antibody, V domains shown) VH: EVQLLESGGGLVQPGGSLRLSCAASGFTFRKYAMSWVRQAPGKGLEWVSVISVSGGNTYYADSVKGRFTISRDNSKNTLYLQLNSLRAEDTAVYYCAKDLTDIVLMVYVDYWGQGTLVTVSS VL: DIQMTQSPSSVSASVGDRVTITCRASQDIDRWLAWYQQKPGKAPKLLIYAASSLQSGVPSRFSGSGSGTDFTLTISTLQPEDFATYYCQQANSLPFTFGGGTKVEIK :: -1
H1H728N (antibody, V domains shown) VH: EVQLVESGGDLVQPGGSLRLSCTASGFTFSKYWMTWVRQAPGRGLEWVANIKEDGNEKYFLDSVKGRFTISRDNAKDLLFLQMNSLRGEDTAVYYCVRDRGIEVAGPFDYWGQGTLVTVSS VL: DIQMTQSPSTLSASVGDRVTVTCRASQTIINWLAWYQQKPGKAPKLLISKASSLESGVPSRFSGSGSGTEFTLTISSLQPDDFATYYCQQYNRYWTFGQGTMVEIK :: -1
H1H693P (antibody, V domains shown) VH: EVQLVESGGGLVQPGESLRLSCAASGFTFSSYAMSWVRQGPGKGLEWVSSISGSGGTTYYADSVEGRFTISRDNSKNTLYLHMNSLRAEDTAVYYCAKDFLDYSTYLAFDLWGQGTMVTVSS VL: DIQMTQSPSSVSASVGDRVTITCRASQGISSWLAWYQQKPGKAPKLLIYAASSLQSGVPSRFSGSGSGTDFTLTISSLQPEDFATYYCQQANSFPRTFGQGTKVEIK :: 1

The measured values listed here are drawn from patent US20140112930A1.
